Measured Ki values are reported for all entries that follow.
Molecular target: Delta-type opioid receptor (Rattus norvegicus)
Sequence (P33533 whole entry): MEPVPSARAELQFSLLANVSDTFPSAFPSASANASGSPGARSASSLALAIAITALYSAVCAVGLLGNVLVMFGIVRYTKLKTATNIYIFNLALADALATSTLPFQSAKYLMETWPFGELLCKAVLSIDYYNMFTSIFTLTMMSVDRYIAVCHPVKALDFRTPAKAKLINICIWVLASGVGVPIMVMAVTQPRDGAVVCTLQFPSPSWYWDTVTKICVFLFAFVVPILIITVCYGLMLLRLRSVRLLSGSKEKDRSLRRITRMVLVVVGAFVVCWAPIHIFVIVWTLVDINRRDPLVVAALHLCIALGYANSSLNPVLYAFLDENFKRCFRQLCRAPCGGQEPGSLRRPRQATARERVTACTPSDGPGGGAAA
Assay: Affinity against Opioid receptor delta 1 was determined by measuring the inhibition of [3H]DPDPE binding to rat forebrain membranes
Type: cell membranes, Membrane

INSERT INTO measurements (molecule, measurement_target, measured_parameter, result) VALUES
  ('C=CCN(CC=C)[C@@H](Cc1ccc(O)cc1)C(=O)NCC(=O)NCC(=O)N[C@@H](Cc1ccccc1)C(=O)N[C@@H](CC(C)C)C(=O)N[C@@H](CCCN=C(N)N)C(=O)N[C@@H](CCCN=C(N)N)C(=O)N[C@H](C(=O)N[C@@H](CCCN=C(N)N)C(=O)N1CCCC1C(=O)N[C@@H](CCCCN)C(=O)O)[C@@H](C)CC (stereo in doubt)', 'Delta-type opioid receptor (Rattus norvegicus)', 'Ki', '149 nM'),
  ('CC[C@H](C)[C@H](NC(=O)[C@H](CCCN=C(N)N)NC(=O)[C@H](CCCN=C(N)N)NC(=O)[C@H](CC(C)C)NC(=O)[C@H](Cc1ccccc1)NC(=O)CNC(=O)CNC(=O)[C@H](Cc1ccc(O)cc1)N(Cc1ccccc1)Cc1ccccc1)C(=O)N[C@@H](CCCN=C(N)N)C(=O)N1CCCC1C(=O)N[C@@H](CCCCN)C(=O)O (stereo in doubt)', 'Delta-type opioid receptor (Rattus norvegicus)', 'Ki', '2770 nM');

Consider the additional molecule presented here.
Prompt: Notebook entry, Delta-type opioid receptor (Rattus norvegicus) assay: Ki of CC[C@H](C)[C@H](NC(=O)[C@H](CCCN=C(N)N)NC(=O)[C@H](CCCN=C(N)N)NC(=O)[C@H](CC(C)C)NC(=O)[C@H](Cc1ccccc1)NC(=O)CNC(=O)CNC(=O)[C@H](Cc1ccc(O)cc1)N(CC1CC1)CC1CC1)C(=O)N[C@@H](CCCN=C(N)N)C(=O)N1CCCC1C(=O)N[C@@H](CCCCN)C(=O)O (stereo in doubt) = ?
Response: 166 nM
